Source: ChEMBL document CHEMBL1129655

SYSTEM: Acetylcholinesterase (Mus musculus, UniProt P21836)
Sequence (P21836 whole entry): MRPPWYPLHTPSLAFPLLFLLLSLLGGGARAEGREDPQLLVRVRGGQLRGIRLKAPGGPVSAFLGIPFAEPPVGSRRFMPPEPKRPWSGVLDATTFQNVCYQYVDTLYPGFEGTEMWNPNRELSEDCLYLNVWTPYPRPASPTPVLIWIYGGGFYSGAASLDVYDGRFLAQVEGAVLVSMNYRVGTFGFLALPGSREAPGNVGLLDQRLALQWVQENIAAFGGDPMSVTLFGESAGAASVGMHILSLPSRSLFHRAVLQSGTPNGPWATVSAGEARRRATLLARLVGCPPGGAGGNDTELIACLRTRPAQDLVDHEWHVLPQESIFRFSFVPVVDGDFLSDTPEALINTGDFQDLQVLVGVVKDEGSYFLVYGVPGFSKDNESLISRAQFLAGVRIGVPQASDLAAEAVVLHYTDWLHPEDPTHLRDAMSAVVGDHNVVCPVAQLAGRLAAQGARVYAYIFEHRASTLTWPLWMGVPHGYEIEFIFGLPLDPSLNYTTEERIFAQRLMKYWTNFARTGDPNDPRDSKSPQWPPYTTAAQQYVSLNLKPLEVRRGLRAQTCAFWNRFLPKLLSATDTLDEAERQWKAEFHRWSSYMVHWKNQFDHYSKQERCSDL
pIC50: −log10 of the molar value.
QUANTITY_NAME: pIC50

>  <ENTRY_SMILES>
O=C(NCCC1CCN(CCc2ccccc2)CC1)c1ccccc1

>  <OBSERVED>
4.89

$$$$
